Give IC50 for every item shown.
Target: rat metabotropic glutamate receptor (mGlu2) (Rattus norvegicus)
Construct: expressed in transfected cells
Sequence (P31421 19-872): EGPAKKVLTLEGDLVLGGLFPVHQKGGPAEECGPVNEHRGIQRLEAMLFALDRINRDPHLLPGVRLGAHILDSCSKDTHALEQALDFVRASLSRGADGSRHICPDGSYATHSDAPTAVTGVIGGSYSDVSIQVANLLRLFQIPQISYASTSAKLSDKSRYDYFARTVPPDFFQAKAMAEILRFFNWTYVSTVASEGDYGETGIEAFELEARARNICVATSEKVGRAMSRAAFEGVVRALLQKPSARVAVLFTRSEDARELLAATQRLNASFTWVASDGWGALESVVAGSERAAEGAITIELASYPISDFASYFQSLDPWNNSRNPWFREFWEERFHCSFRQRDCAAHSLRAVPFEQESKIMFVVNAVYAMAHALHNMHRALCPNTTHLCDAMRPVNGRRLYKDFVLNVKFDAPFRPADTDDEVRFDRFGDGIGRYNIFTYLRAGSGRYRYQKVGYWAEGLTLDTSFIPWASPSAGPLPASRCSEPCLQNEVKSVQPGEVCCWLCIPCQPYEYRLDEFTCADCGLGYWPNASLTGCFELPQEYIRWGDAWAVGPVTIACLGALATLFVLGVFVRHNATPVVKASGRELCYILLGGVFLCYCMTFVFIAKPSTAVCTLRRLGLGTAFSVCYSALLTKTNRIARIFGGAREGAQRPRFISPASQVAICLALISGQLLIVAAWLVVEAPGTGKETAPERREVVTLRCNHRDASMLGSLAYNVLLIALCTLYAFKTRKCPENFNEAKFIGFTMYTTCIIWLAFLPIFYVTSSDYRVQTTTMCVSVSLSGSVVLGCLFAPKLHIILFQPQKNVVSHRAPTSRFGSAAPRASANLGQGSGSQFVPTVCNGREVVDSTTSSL
Experiment: [35S]GTPγS binding test (1), crude membrane fraction of CHO cells stably expressing rat mGlu2
Format: biochemical
Details: inhibition of glutamic acid (20 μM)-stimulated specific [35S]GTPγS binding, rat mGlu2 CHO membranes
Reply with just the number (in nM).

Query for rat metabotropic glutamate receptor (mGlu2) (Rattus norvegicus): what IC50 does the record show for Cn1ncc(C#Cc2cccc(S(N)(=O)=O)c2)c1COc1ccc(C#N)cc1 [Example 100] ? 61.8

Query for rat metabotropic glutamate receptor (mGlu2) (Rattus norvegicus): what IC50 does the record show for Cn1ncc(C#Cc2cccc(S(N)(=O)=O)c2)c1CNc1ccc(C(F)(F)F)cc1 [Example 98] ? 42.8

Query for rat metabotropic glutamate receptor (mGlu2) (Rattus norvegicus): what IC50 does the record show for Cn1ncc(C#Cc2cccc(S(N)(=O)=O)c2)c1COc1ccc(C(F)(F)F)cc1 [Example 84] ? 2.72

Query for rat metabotropic glutamate receptor (mGlu2) (Rattus norvegicus): what IC50 does the record show for Cc1nn(C)c(COc2ccc(C(F)(F)F)cc2)c1C#Cc1cccc(S(N)(=O)=O)c1 [Example 81] ? 14.6

Query for rat metabotropic glutamate receptor (mGlu2) (Rattus norvegicus): what IC50 does the record show for Cn1ncc(C#Cc2ccc(S(N)(=O)=O)cc2F)c1CCc1ccc(C(F)(F)F)cc1 [Example 83] ? 22

Query for rat metabotropic glutamate receptor (mGlu2) (Rattus norvegicus): what IC50 does the record show for Cn1ncc(C#Cc2ccc(S(N)(=O)=O)cc2)c1N1Cc2ccc(Cl)cc2C1 [Example 58] ? 13.8

Query for rat metabotropic glutamate receptor (mGlu2) (Rattus norvegicus): what IC50 does the record show for Cn1ncc(C#Cc2cccc(S(N)(=O)=O)c2)c1-c1cc(-c2ccc(C(F)(F)F)cc2)no1 [Example 87] ? 3.43

Query for rat metabotropic glutamate receptor (mGlu2) (Rattus norvegicus): what IC50 does the record show for Cn1ncc(C#Cc2ccc(S(N)(=O)=O)cc2)c1-c1nc(-c2ccc(C(F)(F)F)cc2)no1 [Example 73] ? 2.1

Source listed as patent US8642626B2.
